For each record, write down the corresponding log10 of Kd.
TARGET_OR_TEST_SYSTEM: GDP-bound KRAS wild-type protein (Homo sapiens)
Sequence (P01116 whole entry): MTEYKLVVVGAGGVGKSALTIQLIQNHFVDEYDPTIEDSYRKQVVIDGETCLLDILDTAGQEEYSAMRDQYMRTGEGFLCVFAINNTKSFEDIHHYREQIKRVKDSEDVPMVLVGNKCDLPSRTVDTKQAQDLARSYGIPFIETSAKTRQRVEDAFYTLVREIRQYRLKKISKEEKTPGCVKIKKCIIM
ASSAY_SUMMARY: Binding to KRAS by surface plasmon resonance (SPR), Single Cycle Kinetics
CONDITION: SPR, Single Cycle Kinetics, GDP-bound KRAS wild-type protein; read-out: KRAS KD
Remember, log10 of Kd, in nM.

Fill in log10 of Kd for each of the 3 compounds listed.
1. CCC[C@H]1C(=O)N[C@@H]([C@@H](C)CC)C(=O)N2CCC[C@H]2C(=O)N(C)[C@H]2C/C=C\CCN(C2=O)[C@@H](Cc2ccc(C)cc2)C(=O)N(C)CC(=O)N[C@@H](CCc2ccc(C(F)(F)F)c(OC)c2)C(=O)N2C[C@H](OCC)C[C@H]2C(=O)N(C)C2(CCC2)C(=O)N(C)[C@@H](C2CCCC2)C(=O)N(C)[C@H](C(=O)N(C)C)CC(=O)N1C
2. CCO[C@@H]1C[C@H]2C(=O)NC3(CCC3)C(=O)N(C)[C@@H](C3CCCC3)C(=O)N(C)[C@H](C(=O)N(C)C)CC(=O)N(C)[C@@H](Cc3ccccc3F)C(=O)N[C@@H]([C@@H](C)CC)C(=O)N(C)CC(=O)N(C)[C@H]3CCCCCN(C3=O)[C@@H](Cc3ccc(C(F)(F)F)cc3)C(=O)N(C)CC(=O)N[C@@H](CCc3cc(F)c(C(F)(F)F)c(F)c3)C(=O)N2C1
3. CC[C@H](C)[C@@H]1NC(=O)[C@H](CC2CCC2)N(C)C(=O)C[C@@H](C(=O)N(C)C)N(C)C(=O)[C@H](C2CCCC2)N(C)C(=O)C2(CC(C)(C)C2)NC(=O)[C@@H]2CC(F)(F)CN2C(=O)[C@H](CCc2cc(F)c(C(F)(F)F)c(F)c2)NC(=O)CN(C)C(=O)[C@H](Cc2ccc(C(F)(F)F)cc2)N2CC/C=C\C[C@@H](C2=O)N(C)C(=O)CN(C)C1=O

1: -1.00; 2: -0.14; 3: -1.00
